I'd appreciate it if you could supply enrichment ratio values for the items below.
B1: PhoQ; a variant is named by its letters at X, in order, P23837 (parent)
chain: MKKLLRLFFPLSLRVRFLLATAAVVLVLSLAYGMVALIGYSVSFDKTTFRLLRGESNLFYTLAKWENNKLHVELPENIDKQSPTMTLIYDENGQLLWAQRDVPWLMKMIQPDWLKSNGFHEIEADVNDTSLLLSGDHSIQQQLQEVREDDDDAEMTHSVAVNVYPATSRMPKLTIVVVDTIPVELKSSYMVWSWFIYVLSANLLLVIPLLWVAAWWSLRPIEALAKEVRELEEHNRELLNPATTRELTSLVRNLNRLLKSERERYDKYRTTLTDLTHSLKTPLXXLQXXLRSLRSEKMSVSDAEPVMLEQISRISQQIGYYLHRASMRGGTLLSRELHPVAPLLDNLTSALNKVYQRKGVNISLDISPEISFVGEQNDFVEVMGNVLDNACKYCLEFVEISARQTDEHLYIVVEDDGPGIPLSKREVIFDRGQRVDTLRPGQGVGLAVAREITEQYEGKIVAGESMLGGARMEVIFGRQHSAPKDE

Variants of: B1
Experiment: enrichment ratio after two sorts for PhoP signalling (ratio (wild type AVST 3.29)); higher = more functional
Settings: with PhoP (E. coli)
Over roughly 140,000 sequences, “enrichment ratio after two sorts for PhoP signalling” has its median near 0; the highest 2% begin near 11. The full list was thinned out, with the highest values kept by preference.

Worked cases, enrichment ratio given:
{"residue change": "NEHS", "enrichment ratio": "≤ 0.25"}
{"residue change": "TEHI", "enrichment ratio": 14.2}

Below are some variants; for each one, tell me its enrichment ratio.
1. WYFI
2. TGMI
3. EPFH
4. ESGC
5. YSQV
6. STIQ
7. YTNN
8. GNAW

A.
≤ 0.25
13.2
≤ 0.25
≤ 0.25
≤ 0.25
14
≤ 0.25
≤ 0.25

Below are 8 variants. Give each one its enrichment ratio.
1. LGMS
2. WKRH
3. QFHL
4. KAMP
5. GTSW
6. YYHS
7. VKMD
8. GTMC

A.
≤ 0.25
≤ 0.25
≤ 0.25
≤ 0.25
≤ 0.25
≤ 0.25
≤ 0.25
≤ 0.25

// for each variant below, give its enrichment ratio
1. AYLL
2. ASTG
3. GWEH
4. CLFS
5. NHYV

A.
["≤ 0.25", 14.7, "≤ 0.25", "≤ 0.25", "≤ 0.25"]

Batch: enrichment ratio for all items listed.
1. GITD
2. AKLL
3. ASHE
4. ATMA
5. YTIQ
6. GNMC
7. MDIQ

A.
1. ≤ 0.25
2. 14.3
3. ≤ 0.25
4. 1.82
5. ≤ 0.25
6. ≤ 0.25
7. 0.654
